Biological target: human glucagon receptor (human) (UniProt P47871)
Sequence (P47871 26-477): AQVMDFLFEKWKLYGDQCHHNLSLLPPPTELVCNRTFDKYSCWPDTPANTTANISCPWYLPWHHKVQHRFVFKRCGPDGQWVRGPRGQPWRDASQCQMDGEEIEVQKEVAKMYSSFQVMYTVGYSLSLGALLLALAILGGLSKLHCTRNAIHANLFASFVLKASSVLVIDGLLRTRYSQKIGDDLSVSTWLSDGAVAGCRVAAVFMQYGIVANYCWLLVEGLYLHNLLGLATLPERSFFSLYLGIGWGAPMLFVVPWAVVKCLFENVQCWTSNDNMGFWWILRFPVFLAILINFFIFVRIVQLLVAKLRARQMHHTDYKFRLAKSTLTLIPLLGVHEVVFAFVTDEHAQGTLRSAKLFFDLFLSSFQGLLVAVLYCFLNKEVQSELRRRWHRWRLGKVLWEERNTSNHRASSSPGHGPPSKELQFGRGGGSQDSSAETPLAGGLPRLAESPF
Assay: cell-based or functional assay
List of Relative cAMP EC50, nM (0.1% casein) values.
measuredQuantity: Relative cAMP EC50, nM (0.1% casein) (nM)

binder	unit	numericReadout
YXQGTFTSDFSXXLDKKAQXAFIEWLLEGGSSSGAPPPSGE (Aib, Orn, αMeL, acylated Lys, amide; synthetic construct; SITE 2: note = 2-Aminoisobutyric Acid; SITE 12: note = L-ornithine; SITE 13: note = alpha-methyl-leucine; SITE 17: note = Lysine is chemically modified through conjugation of the epsilon-amino group of the Lysine side chain with (2-[2-(2-Amino-ethoxy)-ethoxy]-acetyl)-(gamma-Glu)) [Example 172]	nM	3.38
HXQGTXTSDXXIXLDXKAQXAFIEYLLEGGPSSGEPEPE (synthetic construct; SITE 2: note = 2-Aminoisobutyric Acid; SITE 6: note = alpha-methyl-2-fluoro-L-phenylalanine; SITE 10: note = 3-(4-Pyridyl)-L-alanine; SITE 11: note = alpha-methyl-L-serine; SITE 13: note = alpha-methyl-leucine; SITE 16: note = L-ornithine; SITE 17: note = Lysine is chemically mo) [Example 479]	nM	5.98
YXQGTXTSDXSIXLDXKAQXXFIEYLLEGGPSSGEPPPEEG (synthetic construct; SITE 2: note = 2-Aminoisobutyric Acid; SITE 6: note = alpha-methyl-2-fluoro-L-phenylalanine; SITE 10: note = 3-(4-Pyridyl)-L-alanine; SITE 13: note = alpha-methyl-leucine; SITE 16: note = L-ornithine; SITE 17: note = Lysine is chemically modified through conjugation of the epsil) [Example 494]	nM	1.26
YXQGTFTSDFSXXLDKKAQXAFIEYLLEGGPSSGAPPPGGQ (non-natural residues; lipidated Lys; C-terminal amide; synthetic construct; SITE 2: note = 2-Aminoisobutyric Acid; SITE 12: note = L-ornithine; SITE 13: note = alpha-methyl-leucine; SITE 17: note = Lysine is chemically modified through conjugation of the epsilon-amino group of the Lysine side chain with (2-[2-(2-Amino-ethoxy)-ethoxy]-acetyl)-(gamma-Glu)) [Example 159]	nM	6.89
YXQGTFTSDFSXXLDKKAQXAFIEYLLEXGPSSGEPPPEGS (Lys acylated (AEEA)2-γGlu-C18 diacid; non-natural residues; C-terminal amide; synthetic construct; SITE 2: note = 2-Aminoisobutyric Acid; SITE 12: note = L-ornithine; SITE 13: note = alpha-methyl-leucine; SITE 17: note = Lysine is chemically modified through conjugation of the epsilon-amino group of the Lysine side chain with (2-[2-(2-Amino-ethoxy)-ethoxy]-acetyl)2-(gamma-Glu)) [Example 195]	nM	3.1
YXQGTFTSDFSRXLDKKAQXAFIEYLLEGGESSGAPPPSGS (Aib, alpha-methyl-Leu, lipidated Lys, C-terminal amide; synthetic construct; SITE 2: note = 2-Aminoisobutyric Acid; SITE 13: note = alpha-methyl-leucine; SITE 17: note = Lysine is chemically modified through conjugation of the epsilon-amino group of the Lysine side chain with (2-[2-(2-Amino-ethoxy)-ethoxy]-acetyl)2-(gamma-Glu)-CO-(CH2 )16-CO2H; SITE 20:) [Example 149]	nM	12.6
